Where do the numbers come from? From paper PMC11249646.

molecular target: CIB1 and αIIb interaction (CIB1-GST : F-αIIb peptide) (Homo sapiens, UniProt Q99828); construct: made in house; host or cells: BL-21 plus RIL cells (E. coli); experiment: FP assay, 1536-well qHTS format (primary and confirmatory screen); assay type: binding; details: confirmatory screen, qHTS curve class; negative sign = inhibitory curve
Sequence (Q99828 whole entry): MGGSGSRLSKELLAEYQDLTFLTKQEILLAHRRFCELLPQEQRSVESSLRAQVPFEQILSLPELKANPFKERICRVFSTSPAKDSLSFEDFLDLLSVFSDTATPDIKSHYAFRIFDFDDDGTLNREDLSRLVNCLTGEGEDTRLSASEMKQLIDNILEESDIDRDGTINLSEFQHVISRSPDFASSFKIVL
Measured CONFIRMATORY SCREEN Curve Class, listed per entry.
Write the number on its own, no unit after it.

Compound	CONFIRMATORY SCREEN Curve Class
O=C(Cc1ccc(Cl)c(Cl)c1)Nc1ccc(S(=O)(=O)Nc2cccc(C(=O)O)c2)cc1.O=C(O)C(F)(F)F [NCGC00248362-01]	-1.4

Form field CONFIRMATORY SCREEN Curve Class, entry O=C(O)C(F)(F)F.O=c1c2ccccc2nc2sc(Nc3cccc(N4CCN5CCCCC5C4)c3)nn12 (stereo not shown) [NCGC00189229-01] : -1.2

Quick note, CONFIRMATORY SCREEN Curve Class for Cc1ccc(C(=O)Nc2ccc(S(=O)(=O)O)c3cc(S(=O)(=O)O)cc(S(=O)(=O)O)c23)cc1NC(=O)c1cccc(NC(=O)Nc2cccc(C(=O)Nc3cc(C(=O)Nc4ccc(S(=O)(=O)O)c5cc(S(=O)(=O)O)cc(S(=O)(=O)O)c45)ccc3C)c2)c1 [NCGC00163318-03] landed at -1.4

Item: CSC(Cc1ccc(Cl)cc1)C(=O)Nc1ccc(Cl)cc1C(=O)O.O=C(O)C(F)(F)F (stereo not shown) [NCGC00189231-01] | CONFIRMATORY SCREEN Curve Class: -2.4

Field CONFIRMATORY SCREEN Curve Class (entry CC[C@@H](CO)NC(=O)[C@@H]1C=C2c3cccc4[nH]cc(c34)C[C@H]2N(C)C1.O=C(O)/C=C\C(=O)O [NCGC00017258-05] ) reads -2.4

###

molecular target: CIB1 and αIIb interaction (CIB1-GST : F-αIIb peptide) (Homo sapiens, UniProt Q99828); construct: made in house; host or cells: BL-21 plus RIL cells (E. coli); experiment: FP assay, 1536-well qHTS format (primary and confirmatory screen); assay type: binding; details: qHTS primary screen of LOPAC/NPACT libraries; read-out: IC50
Where a SMILES comes first, the peptide text is derived from it. The star is where a group is joined. Cbz = O=C(OCc1ccccc1)*; CH2Cl = ClC*
Measured Metric: IC50 (µM)
# output: bare number, implied unit µM

Worked examples, 8 molecules total:
Molecule	Tested Target	IC50 / µM
Ic1ccccc1CNC1C2CCN(CC2)C1C(c1ccccc1)c1ccccc1.O=C(O)C(=O)O (centres unmarked)	CIB1 and αIIb interaction (CIB1-GST : F-αIIb peptide) (Homo sapiens, UniProt Q99828)	63.1
Cc1cc(Cn2cnc3c2C[C@@H](C(=O)O)N(C(=O)C(c2ccccc2)c2ccccc2)C3)ccc1N	CIB1 and αIIb interaction (CIB1-GST : F-αIIb peptide) (Homo sapiens, UniProt Q99828)	10
OCC1O[C@H]([S-])[C@H](O)[C@@H](O)[C@@H]1O.[Au+] (some centres unmarked)	CIB1 and αIIb interaction (CIB1-GST : F-αIIb peptide) (Homo sapiens, UniProt Q99828)	89.1
O=c1c(-c2ccc(O)cc2)coc2cc(O)ccc12	CIB1 and αIIb interaction (CIB1-GST : F-αIIb peptide) (Homo sapiens, UniProt Q99828)	56.2
CC(C)N(CCC(=O)c1ccc2ccccc2c1)Cc1ccccc1.Cl	CIB1 and αIIb interaction (CIB1-GST : F-αIIb peptide) (Homo sapiens, UniProt Q99828)	28.2
N.N.N.N.N.N.N.N.N.N.N.N.N.N.O.O.[Ru].[Ru].[Ru]	CIB1 and αIIb interaction (CIB1-GST : F-αIIb peptide) (Homo sapiens, UniProt Q99828)	56.2
Cl.O=c1cc(CN2CCOCC2)occ1OCCCCCSc1ccnc2cc(C(F)(F)F)ccc12	CIB1 and αIIb interaction (CIB1-GST : F-αIIb peptide) (Homo sapiens, UniProt Q99828)	39.8
CCCc1n[nH]c2c1C(c1cc(Cl)cc(Cl)c1O)C(C#N)=C(N)O2 (centres unmarked)	CIB1 and αIIb interaction (CIB1-GST : F-αIIb peptide) (Homo sapiens, UniProt Q99828)	44.7

molecule `COc1cc(SC)ccc1C(=O)N1CCC(Cc2ccccc2)CC1` , IC50 observed: 3.2

The reported IC50 of the molecule `CCOc1ccc(Cc2nc(-c3c(C)nc4ccccn34)cs2)cc1` was 44.7

Data point: `O=C([C@@H]1CCCN(c2ccc3[nH]c(C4(n5cc(Cl)cn5)CC4)nc3n2)C1)N1CCCC1` ; IC50 = 70.8

Notebook: CC(C)C[C@H](NC(=O)CNC(=O)OCc1ccccc1)C(=O)N[C@@H](Cc1ccccc1)C(=O)CCl [NCGC00485375-01] (Cbz-Gly-Leu-Phe-CH2Cl) , IC50 read as 22.4

The value of IC50 measured for the molecule `Cc1ccccc1NC(=O)Nc1ccc(CN2C(=O)N([C@@H](CC(C)C)C(=O)N[C@@H](CC(=O)O)c3ccccc3)C(=O)C2(C)C)cc1` turned out to be 56.2

Lookup result for `CCCCCCC/C=C\CCCCCCCCC(=O)O` ; measured IC50: 31.6

Short answer for `O=C1Nc2ccccc2/C1=C1/Nc2ccccc2/C1=N\O` : IC50 was 3.5

Short answer for `C=CCn1c(=O)c2c(nc(-c3ccc(S(=O)(=O)O)cc3)n2C)n(C)c1=O` : IC50 was 25.1

Data point: `O=C(O)CCc1nc(-c2ccccc2)c(-c2ccccc2)o1` ; IC50 = 89.1

Short answer for `CC/C(=C(\c1ccc(O)cc1)c1ccc(OCCNC)cc1)c1ccccc1` : IC50 was 79.4

###

biological target: GST-CIB1 : F-αIIb peptide (Homo sapiens); construct: made in house; host or cells: BL-21 plus RIL cells (E. coli); assay: FP assay in the presence of glutathione (GSH), thiol reactivity; assay type: binding; conditions: FP assay without glutathione (GSH -); read-out: GSH (-) Assay IC50
Sequence (Q99828 whole entry): as above
Readings of pIC50 for the listed compounds
Friendly reminder that pIC50 comes from taking -log10 of the concentration in mol/L.

Compound	pIC50
Oc1ccc2ccccc2c1SSc1c(O)ccc2ccccc12 [NCGC00186047-02, IPA-3, reference compound]	6.63
O=C(c1cccs1)c1no[n+]([O-])c1C(=O)c1cccs1 [NCGC00071855-04]	5.20
COc1cccc(-n2c(SCc3cc(=O)oc4cc(O)c(O)cc34)nc3ccccc3c2=O)c1.O=C(O)C(F)(F)F [NCGC00371345-01]	4.70
CC(C)(C)c1ccc(SC2=NS(=O)(=O)c3ccccc32)cc1 [NCGC00189495-01]	5.21

Known value: GST-CIB1 : F-αIIb peptide (Homo sapiens) pIC50 of the compound COc1ccccc1C(=O)c1no[n+]([O-])c1C(=O)c1ccccc1OC.O=C(O)C(F)(F)F [NCGC00351170-01] equals 5.40

Simply: O=c1[nH]sc2cc(Cl)ccc12 [NCGC00262908-01, ticlatone, reference compound] , GST-CIB1 : F-αIIb peptide (Homo sapiens), pIC50 = 6.63

Record CC(C)=CCC[C@]1(C)C=Cc2c(O)c3c(c(CC=C(C)C)c2O1)O[C@]12C(=C[C@@H]4CC1C(C)(C)O[C@@]2(C/C=C(/C)C(=O)O)C4=O)C3=O [NCGC00485239-01] / GST-CIB1 : F-αIIb peptide (Homo sapiens), pIC50 recorded as 5.70

Measured pIC50 for this entry CN(C)C(=S)SSC(=S)N(C)C [NCGC00091563-02, thiram, reference compound] on GST-CIB1 : F-αIIb peptide (Homo sapiens): 6.00

Entry COc1ccc(CNC(=O)c2nc(S(=O)(=O)Cc3ccccc3)ncc2Cl)cc1.O=C(O)C(F)(F)F [NCGC00117170-03] under GST-CIB1 : F-αIIb peptide (Homo sapiens) had pIC50 of 5.49

Result for O=C1C(I)=CC(=C(c2cc(I)c([O-])c(I)c2)c2ccccc2C(=O)[O-])C=C1I.[Na+].[Na+] [NCGC00161636-02] , tested on GST-CIB1 : F-αIIb peptide (Homo sapiens), pIC50: 4.80

GST-CIB1 : F-αIIb peptide (Homo sapiens) data for CCN(CC)C(=S)SSC(=S)N(CC)CC [NCGC00016000-13, disulfiram, reference compound] ; its pIC50: 5.49

###

target: CIB1 and αIIb interaction (CIB1-GST : F-αIIb peptide) (Homo sapiens, UniProt Q99828); construct: made in house; host or cells: BL-21 plus RIL cells (E. coli); test: FP assay, 1536-well qHTS format (primary and confirmatory screen); format: binding; details: qHTS primary screen hits, Table S2; read-out: IC50
Measured Metric: pIC50
When answering, recall that pIC50 equals minus log10 of the concentration in mol/L, and write that number alone.

Compound	Tested Target	pIC50
CN(N=O)c1ccc(O)c(O)c1	CIB1 and αIIb interaction (CIB1-GST : F-αIIb peptide) (Homo sapiens, UniProt Q99828)	4.25
CC1=C(C(=O)N(C)C)C(c2ccccc2Br)N=C(Nc2nc3ccccc3o2)N1.O=C(O)C(F)(F)F (centres unmarked)	CIB1 and αIIb interaction (CIB1-GST : F-αIIb peptide) (Homo sapiens, UniProt Q99828)	4.25
COCCCOc1ccnc(C[S+]([O-])c2nc3ccccc3[n-]2)c1C.[Na+] (centres unmarked)	CIB1 and αIIb interaction (CIB1-GST : F-αIIb peptide) (Homo sapiens, UniProt Q99828)	4.37
Cl.Oc1ccc([C@H]2CNCc3c2ccc(O)c3O)cc1O	CIB1 and αIIb interaction (CIB1-GST : F-αIIb peptide) (Homo sapiens, UniProt Q99828)	4.05

Please turn your attention to the following entry.
Entry under test: `O=C1Nc2cc(Cl)ccc2Nc2cscc21` . Its pIC50 was 4.10
